Origin of the recorded values: PubChem BioAssay (NCATS)

# targetOfAssay: D(1A) dopamine receptor (Homo sapiens) (UniProt P21728)
# Sequence (P21728 whole entry, looked up): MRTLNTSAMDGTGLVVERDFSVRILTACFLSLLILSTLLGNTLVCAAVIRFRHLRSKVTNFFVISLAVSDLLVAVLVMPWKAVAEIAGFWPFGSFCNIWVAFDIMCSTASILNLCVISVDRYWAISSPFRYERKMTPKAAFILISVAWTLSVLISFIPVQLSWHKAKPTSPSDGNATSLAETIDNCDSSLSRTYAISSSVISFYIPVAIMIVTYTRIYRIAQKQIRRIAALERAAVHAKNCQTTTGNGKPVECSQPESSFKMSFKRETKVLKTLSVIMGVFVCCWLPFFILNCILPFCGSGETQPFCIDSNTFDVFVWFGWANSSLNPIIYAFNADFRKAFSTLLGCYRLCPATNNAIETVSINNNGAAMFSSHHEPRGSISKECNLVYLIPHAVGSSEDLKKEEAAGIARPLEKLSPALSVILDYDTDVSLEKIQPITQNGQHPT
# testProtocol: HTS Assay for Allosteric Agonists of the Human D1 Dopamine Receptor: Primary Screen for Antagonists (AID 488983);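 note: calcium flux response to an EC80 dopamine challenge measured with no-wash dye; nearly all actives have a fitted effect of over 65% in size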
# assayConditions: D1 receptor cell assay, antagonist mode, qHTS titration; series mostly up to 41.8 µM
Results filed as inconclusive are left out. The source made the active and inactive calls. Calls come from the whole dose curve; as a rule, active = well fitted inhibition curve with a large enough effect; inconclusive = small, poorly fitted or top-dose-only effect, or effect the other way; inactive = flat fitted curve, though single readings scatter.
Possible outcomes: yes (1) (active), no (0) (inactive)

{"molecule": "O=C(O)CNC(=O)C(CS)Cc1ccccc1 (stereo unspecified)", "answerLabel": "no (0)"}
{"molecule": "CCN(CC)c1ncnc2c1ncn2[C@@H]1O[C@H](COP(=O)(O)OP(=O)(O)C(Br)(Br)P(=O)(O)O)[C@@H](O)[C@H]1O", "answerLabel": "no (0)"}
{"molecule": "NC(CCCP(=O)(O)O)C(=O)O (stereo unspecified)", "answerLabel": "no (0)"}
{"molecule": "CN(C)CCC(c1ccc(Cl)cc1)c1ccccn1 (stereo unspecified)", "answerLabel": "no (0)"}
{"molecule": "COc1cc2nc(N3CCN(C(=O)OCc4ccccc4)C(C(=O)NC(C)(C)C)C3)nc(N)c2cc1OC (stereo unspecified)", "answerLabel": "no (0)"}
{"molecule": "NS(=O)(=O)C#Cc1ccccc1", "answerLabel": "no (0)"}
{"molecule": "CCCCCCCCCCCCCCCCCC(=O)NCC(COP(=O)([O-])OCC[N+](C)(C)C)OCC (stereo unspecified)", "answerLabel": "yes (1)"}
{"molecule": "C[N+]1(C)C2CC(OC(=O)[C@H](CO)c3ccccc3)CC1C1OC12 (stereo partly specified)", "answerLabel": "no (0)"}
{"molecule": "O=c1[nH]c2cc(Cl)c(Cl)cc2[nH]c1=O", "answerLabel": "no (0)"}
{"molecule": "O=Nc1ccc2oc(=O)ccc2c1", "answerLabel": "no (0)"}
{"molecule": "CC(COc1ccc(/C=C/c2ccccc2)cc1)[N+](C)(C)C (stereo unspecified)", "answerLabel": "no (0)"}
